Attribute: MIC
Tested on: Streptococcus pneumoniae
RUN DESCRIPTION: Antibacterial activity against fluoroquinolone resistance Streptococcus pneumoniae SP3765
Type: functional
Only the number, expressed in µg/mL, is required.

Known MIC results, listed for orientation:
- COc1c(N2CC[C@@H]([C@@H](N)CC#N)C2)ccc2c(=O)c(C(=O)O)cn(C3CC3)c12: 0.5
- CCC1(CNCCC#N)CN(c2c(F)cc3c(=O)c(C(=O)O)cn(C4CC4)c3c2C)C1: 2
- CC1COc2c(N3CC[C@@H]([C@@H](N)CC#N)C3)c(F)cc3c(=O)c(C(=O)O)cn1c23 (stereo partly drawn): 0.125
- COc1c(N2CC[C@@H]([C@H](C)NCCC#N)C2)ccc2c(=O)c(C(=O)O)cn(C3CC3)c12: 2
- Cc1c(N2CC(C)(CN)C2)c(F)cc2c(=O)c(C(=O)O)cn(C3CC3)c12: 2

// query MIC value for entry CCC1(CN)CN(c2c(F)cc3c(=O)c(C(=O)O)cn(C4CC4)c3c2C)C1 1

// query MIC value for entry Cc1c(N2CC(C)(CNCCC#N)C2)c(F)cc2c(=O)c(C(=O)O)cn(C3CC3)c12 2

// query MIC value for entry COc1c(N2CC[C@@H](CN)C2)ccc2c(=O)c(C(=O)O)cn(C3CC3)c12 4

###

Test system: Haemophilus influenzae
RUN DESCRIPTION: Antibacterial activity against Haemophilus influenzae HI3542
Assay type: functional
TEST PARAMETERS: HI-3542
EXPERIMENTAL ENDPOINT: MIC

Known MIC results, listed for orientation:
* COc1c(N2CC[C@@H]([C@H](C)N)C2)ccc2c(=O)c(C(=O)O)cn(C3CC3)c12 | 0.125 µg/mL
* COc1c(N2CC[C@@H](CN)C2)ccc2c(=O)c(C(=O)O)cn(C3CC3)c12 | 0.06 µg/mL
* CN[C@@H](CC#N)[C@@H]1CCN(c2c(F)cc3c(=O)c(C(=O)O)cn(C4CC4)c3c2OC)C1 | 0.03 µg/mL

We now examine a further molecule.
// query MIC value for entry COc1c(N2CC[C@@H]([C@H](C)N)C2)c(F)cc2c(=O)c(C(=O)O)cn(C3CC3)c12 0.004 µg/mL

###

Tested on: Haemophilus influenzae
RUN DESCRIPTION: Antibacterial activity against Haemophilus influenzae HI3542
Type: functional
TEST PARAMETERS: HI-3542
Under this convention, yes (1) denotes MIC strictly below 0.01 mg/L and no (0) denotes MIC at or above 0.01 mg/L.

For orientation, consider the following solved cases.
* COc1c(N2CC[C@@H]([C@H](C)NCCC#N)C2)ccc2c(=O)c(C(=O)O)cn(C3CC3)c12 | no (0)
* CC1COc2c(N3CC[C@@H]([C@@H](N)CC#N)C3)c(F)cc3c(=O)c(C(=O)O)cn1c23 (some centres not stated) | yes (1)
* CN[C@@H](C)[C@@H]1CCN(c2c(F)cc3c(=O)c(C(=O)O)cn(C4CC4)c3c2OC)C1 | no (0)
* C[C@H]1COc2c(N3CCN(C)CC3)c(F)cc3c(=O)c(C(=O)O)cn1c23.C[C@H]1COc2c(N3CCN(C)CC3)c(F)cc3c(=O)c(C(=O)O)cn1c23.O | no (0)
* Cc1c(N2CC[C@@H]([C@H](C)N)C2)c(F)cc2c(=O)c(C(=O)O)cn(C3CC3)c12 | yes (1)

Find out if reported MIC for COc1c(N2CC[C@@H](CNCCC#N)C2)ccc2c(=O)c(C(=O)O)cn(C3CC3)c12 is less than 0.01 mg/L no (0)

Find out if reported MIC for CC1COc2c(N3CC[C@@H]([C@H](C)NCCC#N)C3)c(F)cc3c(=O)c(C(=O)O)cn1c23 (some centres not stated) is less than 0.01 mg/L no (0)

Data origin: ChEMBL document CHEMBL1144619
